# credit: patent US20250064909A1

MEASURED_ON: T1, recombinant human TIGIT (Sino Biological) (human, UniProt Q495A1 22-138)
T1 construct: Bought protein; NP_776160.2; also called human TIGIT antigen; hTIGIT
T1 sequence: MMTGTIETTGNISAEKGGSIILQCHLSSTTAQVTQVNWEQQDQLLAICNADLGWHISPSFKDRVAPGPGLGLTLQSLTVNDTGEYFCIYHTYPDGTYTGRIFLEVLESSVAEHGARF
ASSAY_EXPLANATION: SPR (Biacore T200), single cycle kinetics, IgG from supernatant captured on anti-human chip, TIGIT as analyte, 1:1 fit;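 note: measured at 25 °C in HBS-P+ with 1% BSA, four ascending TIGIT concentrations, 210 s association per step, one final 900 s dissociation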
TEST_READOUT: koff (s⁻¹)
Give bare numbers, in s⁻¹.

Study these solved cases before continuing.
7A6 VH5/Vκ2 humanized antibody (human IgG1, kappa) (antibody, V domains shown, Tested as IgG in supernatant of transiently transfected HEK293 EBNA cells) VH: QVQLQESGPGLVKPSQTLSLTCTVTGYSITSDYAWNWIRQPPGKGLEWMGYISYSGSARYNPSLKSRVTISVDTSKNQFSLKLSSVTAADTAVYYCARKGYPAYFAYWGQGTLVTVSS VL: DIVMTQSPSSLSASVGDRVSITCKASQDVSTAVAWYQQKPGQAPRLLIYSASYRYTGVPDRFTGSGSGTDFTLTISSLQAEDVAVYYCQHHYSTPYTFGQGTKLEIKR
0.00204
7A6 VH5/Vκ1 humanized antibody (human IgG1, kappa) (antibody, V domains shown, Tested as IgG in supernatant of transiently transfected HEK293 EBNA cells) VH: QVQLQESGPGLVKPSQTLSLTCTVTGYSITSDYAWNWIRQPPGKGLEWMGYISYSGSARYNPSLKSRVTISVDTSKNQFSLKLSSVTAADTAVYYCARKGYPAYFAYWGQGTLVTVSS VL: DIVMTQSHSFLSASVGDRVSITCKASQDVSTAVAWYQQKPGQAPELLIYSASYRYTGVPDRFTGSGSGTDFTLTISSLQAEDVAVYYCQHHYSTPYTFGQGTKLEMKR
0.00124
7A6 VH4/Vκ3 humanized antibody (human IgG1, kappa) (antibody, V domains shown, Tested as IgG in supernatant of transiently transfected HEK293 EBNA cells) VH: QVQLQESGPGLVKPSQTLSLTCTVTGYSITSDYAWNWIRQPPGKGLEWMGYISYSGSARYNPSLKSRVTISRDTSKNQFSLKLSSVTAADTAVYYCARKGYPAYFAYWGQGTLVTVSS VL: DIQMTQSPSSLSASVGDRVSITCKASQDVSTAVAWYQQKPGQAPRLLIYSASYRYTGVPDRFSGSGSGTDFTLTISSLQAEDVAVYYCQHHYSTPYTFGQGTKLEIKR
0.00175

Go through the list and state koff for each entry.
1. 7A6 VH1/Vκ4 humanized antibody (human IgG1, kappa) (antibody, V domains shown, Tested as IgG in supernatant of transiently transfected HEK293 EBNA cells) VH: DVQLQESGPGLVKPSQTLSLTCTVTGYSITSDYAWNWIRQPPGKGLEWMGYISYSGSARYNPSLKSRITISRDTSMNQFSLKLNSVTAEDTATYYCARKGYPAYFAYWGQGTLVTVSS VL: DIQMTQSPSSLSASVGDRVTITCRASQDVSTAVAWYQQKPGQAPRLLIYSASYRYTGVPDRFSGSGSGTDFTLTISSLQAEDVAVYYCQHHYSTPYTFGQGTKLEIKR
2. 7A6 VH2/Vκ2 humanized antibody (human IgG1, kappa) (antibody, V domains shown, Tested as IgG in supernatant of transiently transfected HEK293 EBNA cells) VH: DVQLQESGPGLVKPSQTLSLTCTVTGYSITSDYAWNWIRQPPGKGLEWMGYISYSGSARYNPSLKSRITISRDTSKNQFSLKLSSVTAEDTATYYCARKGYPAYFAYWGQGTLVTVSS VL: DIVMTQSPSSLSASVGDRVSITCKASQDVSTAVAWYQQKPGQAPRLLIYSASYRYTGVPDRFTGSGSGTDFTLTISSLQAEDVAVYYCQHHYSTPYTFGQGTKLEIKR

Reply:
[0.00167, 0.00158]

Go through the list and state koff for each entry.
1. 7A6 VH3/Vκ1 humanized antibody (human IgG1, kappa) (antibody, V domains shown, Tested as IgG in supernatant of transiently transfected HEK293 EBNA cells) VH: QVQLQESGPGLVKPSQTLSLTCTVTGYSITSDYAWNWIRQPPGKGLEWMGYISYSGSARYNPSLKSRVTISRDTSKNQFSLKLSSVTAEDTATYYCARKGYPAYFAYWGQGTLVTVSS VL: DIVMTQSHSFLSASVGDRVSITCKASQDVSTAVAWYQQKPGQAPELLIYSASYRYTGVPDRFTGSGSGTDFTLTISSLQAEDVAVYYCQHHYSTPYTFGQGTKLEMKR
2. 7A6 VH3/Vκ4 humanized antibody (human IgG1, kappa) (antibody, V domains shown, Tested as IgG in supernatant of transiently transfected HEK293 EBNA cells) VH: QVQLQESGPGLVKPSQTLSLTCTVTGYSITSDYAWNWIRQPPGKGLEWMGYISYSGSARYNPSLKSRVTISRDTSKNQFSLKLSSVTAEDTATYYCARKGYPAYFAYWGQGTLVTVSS VL: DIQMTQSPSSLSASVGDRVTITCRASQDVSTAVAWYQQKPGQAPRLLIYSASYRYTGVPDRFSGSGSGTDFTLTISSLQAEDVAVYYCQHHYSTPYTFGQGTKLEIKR

Reply:
1. 0.00155
2. 0.00196
